B1: Osa-1-4 twister ribozyme (parent)
chain: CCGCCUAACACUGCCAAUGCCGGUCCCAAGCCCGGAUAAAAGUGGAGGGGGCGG

Variants of: B1
Assay: self-cleavage, relative activity (ratio to wild type); higher = more cleavage; co-transcriptional
Recorded self-cleavage by entry
Please state the value as a number alone, without comment.

Use these answered entries as a reference point.
G30C G54U ... 0.05
A39U G35C ... 0.19
G44U G54A ... 0.88
C52G G13U ... 0.06
U24G U37C ... 0.02

input: Quick check: self-cleavage of C20G G50A ?
output: 0.23

input: A41G G35A , same question.
output: 0.57

input: G50U G53U , same question.
output: 0.37

input: C31U G49C , same question.
output: 0.05

input: G48A U18A , same question.
output: 0.09
